Assay: Half life in CD1 mouse at 562 umol/kg, ip
Type: ADME, organism-based
Details: in vivo
# half-life per record follows
Numbers only here, please. The scale is min.

Solved cases (2 shown):
Cc1ccc2c(c1)[n+]([O-])c(NCCN(C)C)n[n+]2[O-]    22.5
[O-][n+]1nc(NCCN2CCOCC2)[n+]([O-])c2ccccc21    16.5

// moving on: another record for half-life
# input Looking for the measured half-life of `COCCOc1ccc2c(c1)[n+]([O-])c(NCCN(C)C)n[n+]2[O-]` , can you help?
# output 44.9

----------
Assay: Cmax in CD1 mouse at 1000 umol/kg, ip
Format: ADME, organism-based
Set-up: dose 1000 umol/kg, route intraperitoneal
Details: in vivo
# Cmax per record follows
Numbers only here, please. The scale is µM.

Solved cases (2 shown):
Cc1ccc2c(c1)[n+]([O-])c(N)n[n+]2[O-]    198
COc1ccc2c(c1)[n+]([O-])c(NCCN(C)C)n[n+]2[O-]    157

// moving on: another record for Cmax
# input Looking for the measured Cmax of `CC(C)Oc1ccc2c(c1)[n+]([O-])c(NCCN(C)C)n[n+]2[O-]` , can you help?
# output 123

----------
Assay: Solubility in culture medium in presence of 5% fetal calf serum
Type: physicochemical
Conditions: culture medium with 5% fetal calf serum
# solubility per record follows

Solved cases (3 shown):
[O-][n+]1nc(NCCN2CCCCC2)[n+]([O-])c2cc(Cl)ccc21    3.2 mM
CN(C)CCNc1n[n+]([O-])c2ccccc2[n+]1[O-]    50 mM
Nc1n[n+]([O-])c2ccccc2[n+]1[O-]    8.9 mM

# input Looking for the measured solubility of `CCc1ccc2c(c1)[n+]([O-])c(NCCCN1CCOCC1)n[n+]2[O-]` , can you help?
# output 55 mM

# input Looking for the measured solubility of `COc1ccc2c(c1)[n+]([O-])c(NCCN1CCCCC1)n[n+]2[O-]` , can you help?
# output 45 mM

----------
# half-life per record follows
Test: Half life in CD1 mouse at 750 umol/kg, ip
Format: ADME, organism-based
Details: in vivo
Numbers only here, please. The scale is min.

Solved cases (2 shown):
CCOc1ccc2c(c1)[n+]([O-])c(NCCN(C)C)n[n+]2[O-]    31.6
CCc1ccc2c(c1)[n+]([O-])c(NCCCN1CCOCC1)n[n+]2[O-]    24.9

// moving on: another record for half-life
# input Looking for the measured half-life of `Cc1ccc2c(c1)[n+]([O-])c(NCCN1CCOCC1)n[n+]2[O-]` , can you help?
# output 15.4

----------
Tested on: Mus musculus
Experiment: Toxicity in ip dosed CD1 mouse
Type: organism-based
Details: in vivo
assay_readout: MTD (µmol/kg)
Numbers only here, please. The scale is µmol/kg.

CC(C)Oc1ccc2c(c1)[n+]([O-])c(NCCN(C)C)n[n+]2[O-]    1330
CCc1ccc2c(c1)[n+]([O-])c(NCCN(C)C)n[n+]2[O-]    421
Cc1ccc2c(c1)[n+]([O-])c(N)n[n+]2[O-]    1000

# input // lookup MTD | system=Mus musculus | key= `CCOc1ccc2c(c1)[n+]([O-])c(NCCN1CCCCC1)n[n+]2[O-]`
# output 316

# input // lookup MTD | system=Mus musculus | key= `[O-][n+]1nc(NCCN2CCOCC2)[n+]([O-])c2ccccc21`
# output 562

# input // lookup MTD | system=Mus musculus | key= `Nc1n[n+]([O-])c2ccccc2[n+]1[O-]`
# output 178

# input // lookup MTD | system=Mus musculus | key= `CCc1ccc2c(c1)[n+]([O-])c(NCCCN1CCOCC1)n[n+]2[O-]`
# output 1000

# input // lookup MTD | system=Mus musculus | key= `CCOc1ccc2c(c1)[n+]([O-])c(NCCN(C)C)n[n+]2[O-]`
# output 1000

# input // lookup MTD | system=Mus musculus | key= `CCCN(CCC)CCNc1n[n+]([O-])c2ccc(C)cc2[n+]1[O-]`
# output 421

# input // lookup MTD | system=Mus musculus | key= Cc1ccc2c(c1)[n+]([O-])c(NCCN1C(C)CCCC1C)n[n+]2[O-] (centres undefined)
# output 421

----------
Assay: Half life in CD1 mouse at 316 umol/kg, ip
Type: ADME, organism-based
Conditions: in vivo
# half-life per record follows
Numbers only here, please. The scale is min.

Solved cases (3 shown):
CCCN(CCC)CCNc1n[n+]([O-])c2ccc(C)cc2[n+]1[O-]    17.3
CCc1ccc2c(c1)[n+]([O-])c(NCCN(C)C)n[n+]2[O-]    12.7
COc1ccc2c(c1)[n+]([O-])c(NCCN1CCCCC1)n[n+]2[O-]    24.6

// moving on: another record for half-life
# input Looking for the measured half-life of `CCCN(CCC)CCNc1n[n+]([O-])c2ccccc2[n+]1[O-]` , can you help?
# output 11.8

----------
# solubility per record follows
Assay: Solubility in culture medium in presence of 5% fetal calf serum
Format: physicochemical
Settings: culture medium with 5% fetal calf serum
Numbers only here, please. The scale is mM.

# input Looking for the measured solubility of `CCN(CC)CCNc1n[n+]([O-])c2ccc(Cl)cc2[n+]1[O-]` , can you help?
# output 23

----------
# Cmax per record follows
Test: Cmax in CD1 mouse at 750 umol/kg, ip
Assay type: ADME, organism-based
Set-up: dose 750 umol/kg, route intraperitoneal
Conditions: in vivo
Numbers only here, please. The scale is µM.

Solved cases (2 shown):
Cc1ccc2c(c1)[n+]([O-])c(NCCN1CCOCC1)n[n+]2[O-]    132
CCc1ccc2c(c1)[n+]([O-])c(NCCCN1CCOCC1)n[n+]2[O-]    139

# input Looking for the measured Cmax of `CCOc1ccc2c(c1)[n+]([O-])c(NCCN(C)C)n[n+]2[O-]` , can you help?
# output 85.7

----------
Tested on: HT-29
Test: Antitumor activity against human HT29 cells implanted in CD1 mouse assessed as clonogenic survival at 1000 umol/kg, ip after 18 hrs relative to control
Assay type: functional
# LCK per record follows
Answer with a bare number; do not write a unit.

Solved cases (3 shown):
COc1ccc2c(c1)[n+]([O-])c(NCCN(C)C)n[n+]2[O-]    0.15
Cc1ccc2c(c1)[n+]([O-])c(N)n[n+]2[O-]    0.39
CN(C)CCNc1n[n+]([O-])c2ccc(OCC3CC3)cc2[n+]1[O-]    -0.14

// moving on: another record for LCK
# input Looking for the measured LCK of `CC(C)Oc1ccc2c(c1)[n+]([O-])c(NCCN(C)C)n[n+]2[O-]` , can you help?
# output -0.17

----------
Assay: Solubility in culture medium in presence of 5% fetal calf serum
Type: physicochemical
Settings: culture medium with 5% fetal calf serum
assay_readout: solubility

# input Looking for the measured solubility of `CCN(CC)CCNc1n[n+]([O-])c2ccc(C(C)(C)C)cc2[n+]1[O-]` , can you help?
# output > 48 mM

# input Looking for the measured solubility of `CC(C)(C)c1ccc2c(c1)[n+]([O-])c(NCCN1CCOCC1)n[n+]2[O-]` , can you help?
# output 1.8 mM

# input Looking for the measured solubility of `Cc1ccc2c(c1)[n+]([O-])c(NCCN1CCCCC1)n[n+]2[O-]` , can you help?
# output 45 mM

# input Looking for the measured solubility of `CCOc1ccc2c(c1)[n+]([O-])c(NCCN1CCCCC1)n[n+]2[O-]` , can you help?
# output > 49 mM

# input Looking for the measured solubility of CC1CCCC(C)N1CCNc1n[n+]([O-])c2ccccc2[n+]1[O-] (stereo not given) , can you help?
# output 48 mM

----------
Test system: HT-29
Assay: Effect on human HT29 cells under hypoxic conditions assessed as drug level causing 10% clonogenic survival
Assay type: functional
The label is class 1 for Activity below 40 µM·h and class 0 for Activity equal to or exceeding 40 µM·h.

Answered cases to consult:
CCCN(CCC)CCNc1n[n+]([O-])c2ccc(C(C)C)cc2[n+]1[O-]    class 0
CC(C)(C)c1ccc2c(c1)[n+]([O-])c(NCCN1CCCCC1)n[n+]2[O-]    class 1
CCc1ccc2c(c1)[n+]([O-])c(NCCCN1CCOCC1)n[n+]2[O-]    class 0
[O-][n+]1nc(NCCN2CCCCC2)[n+]([O-])c2ccccc21    class 1
CN(C)CCNc1n[n+]([O-])c2ccc(OCC3CC3)cc2[n+]1[O-]    class 0

# input Is Activity strictly under 40 µM·h for the entry `CCOc1ccc2c(c1)[n+]([O-])c(NCCCN1CCOCC1)n[n+]2[O-]` ?
# output class 0

# input Is Activity strictly under 40 µM·h for the entry `CCOc1ccc2c(c1)[n+]([O-])c(NCCN(C)C)n[n+]2[O-]` ?
# output class 0

Just for reference, ChEMBL document CHEMBL1138329 is where these values come from.
